# System: Dengue-2 (Strain New Guinea C)
# PROTOCOL_NOTES: Viral yield assay against Dengue-2 in Vero cells
# Type: cell-based, Dengue virus
# CONDITION_LABEL: Dengue virus; Vero cells, MOI 0.1, harvested 48 hours post infection; read-out: Activity (EC50 class) against Dengue-2 Virus in Vero cells
pEC50: −log10 of the molar value.
MEASUREMENT_TYPE: pEC50

1) CN1CCc2nc3sc(C(=O)Nc4ccccc4)c(N)c3cc2C1 | > 5.30
2) CC1(C)Cc2c(c(N3CCOCC3)nc3sc4c(=O)n(-c5ccccc5)cnc4c23)CO1 | < 4.60
3) CN1CCc2nc3sc(C(=O)NCCc4ccccc4)c(N)c3cc2C1 | < 4.60

// input: 2 compounds below; output: pEC50 for each
1. COc1ccc(CNC(=O)c2sc3nc4c(cc3c2N)CN(C)CC4)cc1OC
2. CC(=O)c1ccc(NC(=O)c2sc3nc4c(c(-c5ccccc5)c3c2N)CN(C)CC4)cc1

1. < 4.60
2. > 5.30

====

# Tested on: Dengue-2 (Strain New Guinea C)
# PROTOCOL_NOTES: Viral yield assay against Dengue-2 in Vero cells
# Assay type: cell-based, Dengue virus
# CONDITION_LABEL: Dengue virus; Vero cells, MOI 0.1, harvested 48 hours post infection; read-out: Activity (EC50 class) against Dengue-2 Virus in Vero cells
Provide the recorded EC50 for the entries that follow.

// input: 3 compounds below; output: EC50 for each
1. NC(=O)c1sc2nc(-c3ccccc3)ccc2c1N [Compound 161]
2. CC1(C)Cc2c(c(N3CCOCC3)nc3sc4c(c23)N2C(=O)CCC2(C)NC4=O)CO1 (stereo not drawn) [Compound 248]
3. COC(=O)c1cc(OC)c(OC)cc1NC(=O)c1sc2nc3c(cc2c1N)CN(C)CC3 [Compound 263]

1. > 25 µM
2. > 25 µM
3. > 25 µM

====

Provide the recorded EC50 for the entries that follow.
# Test system: DENV-1
# PROTOCOL_NOTES: Viral yield assay against DENV-1 in Vero cells
# Assay type: cell-based
# CONDITION_LABEL: Dengue virus, DENV1, viral yield assay

1. Nc1c(C(=O)Nc2ccc(F)c(F)c2)sc2nc(-c3ccc(F)cc3)ccc12 [Compound 615] | < 5 µM
2. Nc1c(C(=O)Nc2cccc(F)c2)sc2nc(-c3ccc(F)cc3)ccc12 [Compound 489] | < 5 µM
3. COc1ccc(-c2ccc3c(N)c(C(=O)Nc4ccc(Br)cc4)sc3n2)cc1 [Compound 469] | < 5 µM

What value of EC50 has been recorded for this entry: COc1cccc(-c2ccc3c(N)c(C(=O)Nc4ccccc4SCC(C)C)sc3n2)c1 [Compound 571]
< 5 µM

====

Provide the recorded EC50 for the entries that follow.
# Tested on: Dengue-2 (Strain New Guinea C)
# PROTOCOL_NOTES: Viral yield assay against Dengue-2 in Vero cells
# Assay type: cell-based, Dengue virus
# CONDITION_LABEL: Dengue virus; Vero cells, MOI 0.1, harvested 48 hours post infection; read-out: Activity (EC50 class) against Dengue-2 Virus in Vero cells
Counter-ions that a name gives are not always drawn.

Consider the reported EC50 for these molecules:
1) N#Cc1cc2c(N)c(C(=O)N(c3ccccc3)c3ccccc3)sc2nc1N | 5 to 25 µM
2) Nc1c(C(=O)Nc2nnc(-c3ccccc3)s2)sc2nc3c(cc12)CNCCC3 [Compound 52, hydrochloride] | < 5 µM
3) COCc1cc(C)nc2sc3c(=O)[nH]nnc3c12 | 5 to 25 µM
4) Cc1ccc(NC(=O)c2sc3nc4c(cc3c2N)CCCCC4)cc1 | > 25 µM
5) Nc1c(C(=O)Nc2nccs2)sc2nc3c(c(-c4ccco4)c12)CCCC3 | 5 to 25 µM
6) Cc1cc(C)c2c(N)c(C(=O)Nc3ccc(S(N)(=O)=O)cc3)sc2n1 | > 25 µM
7) CC(C)N1CCc2nc3sc(C(=O)Nc4ccc(C(F)(F)F)cc4)c(N)c3cc2C1 | < 5 µM
8) Nc1c(C(=O)Nc2ccc([N+](=O)[O-])cc2)sc2nc(-c3cccs3)cc(C(F)(F)F)c12 | > 25 µM
9) CN1CCc2nc3sc(C(=O)Nc4cc(Br)ccc4Br)c(N)c3cc2C1 | < 5 µM
10) Nc1c(C(=O)Nc2ccc([N+](=O)[O-])cc2)sc2nc3c(cc12)CCC3 | > 25 µM

// input: 5 molecules below; output: EC50 for each
1. Cc1ccc(-c2c3c(nc4sc(C(N)=O)c(N)c24)CCCCC3)cc1
2. Cc1cc(F)ccc1NC(=O)c1sc2nc3c(cc2c1N)CN(C)CC3
3. CN1CCc2nc3sc(C(=O)Nc4ccccc4)c(N)c3c(-c3cccs3)c2C1
4. CC1(C)CC(=O)c2cc3c(N)c(C(=O)Nc4ccccc4[N+](=O)[O-])sc3nc2C1
5. COc1ccc(NC(=O)c2sc3nc(C)cc(C(F)(F)F)c3c2N)cc1

1. > 25 µM
2. > 25 µM
3. < 5 µM
4. > 25 µM
5. > 25 µM

// input: 3 molecules below; output: EC50 for each
1. COc1cc2c(cc1OC)CN(C(=O)c1sc3nc4c(cc3c1N)CN(C)CC4)CC2
2. Nc1c(C(=O)Nc2ccc(F)cc2)sc2nc3c(cc12)CCC3
3. CC(=O)c1ccc(NC(=O)c2sc3nc(C)cc(C)c3c2N)cc1

> 25 µM
> 25 µM
> 25 µM

Cited source: patent US20170121344A1
